tgt: human GLP-1 receptor (human, UniProt P43220 24-463)
testProtocol: cell-based or functional assay
Given measured cAMP EC50 (1.0% HSA), output label 1 if it is greater than or equal to 40 nM and label 0 if not.

[[record]]
binder = "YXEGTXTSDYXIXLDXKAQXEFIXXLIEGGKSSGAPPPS (Aib2, αMeF(2F)6, Aib11, αMeL13, Orn16, Aib20, D-Glu24, αMeY25; acylated K17, K31 (groups as in name); C-terminal amide)"
category = "label 0"

[[record]]
binder = "YXEGTXTSDXXIXLDXIAQXKFIKXLIEGGPSSGAPPPS (Aib2, αMeF(2F)6, 4Pal10, αMeS11, αMeL13, Orn16, Aib20, αMeY25; acylated K21, K24 (groups as in name); C-terminal amide)"
category = "label 0"

[[record]]
binder = "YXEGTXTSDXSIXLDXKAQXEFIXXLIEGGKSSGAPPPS (Aib2, αMeF6, 4Pal10, αMeL13, Orn16, Aib20, D-Glu24, αMeF25; acylated K17, K31 (groups as in name); C-terminal amide)"
category = "label 1"

[[record]]
binder = "YXEGTXTSDXSIXLDXKGQXEFIXXLIEGGKSSGAPPPS (Aib2, αMeF(2F)6, 4Pal10, αMeL13, Orn16, Aib20, D-Glu24, αMeY25; acylated K17, K31 (groups as in name); C-terminal amide)"
category = "label 1"

[[record]]
binder = "YXEGTXTSDXSIXLDXKAQXGFIXXLIEGGKSSGAPPPS (Aib2, αMeF(2F)6, 4Pal10, αMeL13, Orn16, Aib20, D-Glu24, αMeY25; acylated K17, K31 (groups as in name); C-terminal amide)"
category = "label 0"

[[record]]
binder = "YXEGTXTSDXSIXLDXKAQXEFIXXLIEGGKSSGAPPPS (Aib2, αMeF(2F)6, Ac4c10, αMeL13, Orn16, Aib20, D-Glu24, αMeY25; acylated K17, K31 (groups as in name); C-terminal amide)"
category = "label 0"

[[record]]
binder = "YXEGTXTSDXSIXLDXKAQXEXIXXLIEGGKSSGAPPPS (Aib2, αMeF(2F)6, 4Pal10, αMeL13, Orn16, Aib20, αMeF(2F)22, D-Glu24, αMeY25; acylated K17, K31 (groups as in name); C-terminal amide)"
category = "label 1"

[[record]]
binder = "YXEGTXTSDXSIXLDXKAQXEFIXXLIXGGKSSGAPPPS (Aib2, αMeF(2F)6, 4Pal10, αMeL13, Orn16, Aib20, D-Glu24, αMeY25, Orn28; acylated K17, K31 (groups as in name); C-terminal amide)"
category = "label 0"

[[record]]
binder = "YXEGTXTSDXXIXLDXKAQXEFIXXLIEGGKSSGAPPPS (Aib2, αMeF(2F)6, 4Pal10, Tle11, αMeL13, Orn16, Aib20, D-Glu24, αMeY25; acylated K17, K31 (groups as in name); C-terminal amide)"
category = "label 1"

